# Test system: Es-2
# protocol.summary: Primary qHTS to identify gynecologic anti-cancer compounds using libraries of approved drugs and bioactive compounds (AID 1345084); also: % is scaled to controls: 0 for no effect and ±100 for the full control effect; nearly all actives have a fitted effect of over 55% in size
# measurement.conditions: Gynecologic cancer cell panel viability, ATPlite luminescence, 48 h; series mostly up to 57.5 µM
Results filed as inconclusive are left out. Calls of active or inactive are those of the source. Calls follow the shape of the dose curve; as a rule, active = well fitted cell-killing curve with a large enough effect; inconclusive = small, poorly fitted or top-dose-only effect, or effect the other way; inactive = flat fitted curve, though single readings scatter.
quantity.name: outcome

Sample records with outcome:
* CC1OC2OC(=O)C3(C)CC4=C(CO)C5=C(CC(=O)C4(C)C(C1=O)C23)C(C)(C)OC(=O)C5 (configuration not stated) | inactive
* C[C@H]1O[C@@H](O[C@H]2CC[C@@]3(C)C(CC[C@]4(C)C3CC=C3C5CC(C)(C)CC[C@]5(C(=O)O)CC[C@]34C(=O)O)C2(C)C)[C@H](O)[C@@H](O)[C@@H]1O (some centres not stated) | inactive
* CC(=O)O[C@@H]1CC(C)=C2[C@H]1[C@H](C)CC[C@H]2/C=C(\C)C(=O)O | inactive
* CCOC(=O)C(CCc1ccccc1)NC1CSC(c2cccs2)CN(CC(=O)O)C1=O (configuration not stated) | inactive
* CC1(O)CCCC2(C)C1CCC13CC(CO)C(CCC12)C3 (configuration not stated) | inactive
* COc1cc([C@H]2c3cc(O)c(OC)cc3C[C@@H](CO[C@@H]3O[C@H](CO)[C@@H](O)[C@H](O)[C@H]3O)[C@@H]2CO)ccc1O | inactive
* CC1=CCC(C(C)(C)O[C@@H]2O[C@H](CO[C@@H]3O[C@@H](C)[C@H](O)[C@@H](O)[C@H]3O)[C@@H](O)[C@H](O)[C@H]2O)CC1 (some centres not stated) | inactive
* O=C(CC1C(=O)Nc2ccccc21)OC[C@H]1O[C@@H](OCCc2ccc(O)cc2)[C@H](O)[C@@H](O)[C@@H]1O (some centres not stated) | inactive

Kindly review the next compound as well.
Just so you know, measured outcome for O=C(NCc1cccc(O)c1)Nc1nc(-c2ccncc2)cs1 came out at inactive

---

# protocol.summary: Primary qHTS for inhibitors of nuclear receptor binding SET domain protein 2 (NSD2) in an RCH-ACV wild type WT cells (2C) (AID 1645877); also: nearly all actives have a fitted effect of over 70% in size; also: potency is read from the fitted curve at half-maximal effect
# measurement.conditions: RCH-ACV (leukaemia line) NSD2 WT (2C) viability, CellTiter-Glo, 72 h; series mostly up to 44.9 µM
Records with an inconclusive call do not appear. Active and inactive are the calls of the source. Calls follow the shape of the dose curve; as a rule, active = well fitted inhibition curve with a large enough effect; inconclusive = small, poorly fitted or top-dose-only effect; inactive = no such curve, though single readings can be large or run the other way.
quantity.name: Potency

* CC12CCC3c4ccc(OC5OC(C(=O)O)C(O)C(O)C5O)cc4CCC3C1CCC2O (stereo not drawn) | inactive
* CCOc1cc(CC(=O)NC(CC(C)C)c2ccccc2N2CCCCC2)ccc1C(=O)O (stereo not drawn) | inactive
* COc1ccc(C(O)C(C)OC2OC(CO)C(O)C(O)C2O)cc1 (stereo not drawn) | inactive
* CC1=CC(=O)CC(C)(C)[C@@]1(O)CC[C@@H](C)O[C@@H]1O[C@H](CO)[C@@H](O)[C@H](O)[C@H]1O | inactive
* CC1(C)CCC2(C(=O)OC3OC(CO)C(O)C(O)C3O)CCC3(C)C(=CCC4C5(C)CCC(O)C(C)(C(=O)O)C5CCC43C)C2C1O (stereo not drawn) | inactive
* CC1(C)CC2C(O)c3cocc3CC(C)(O)C2C1 (stereo not drawn) | inactive
* CC(=O)O[C@]1(C(C)=O)CC[C@H]2[C@@H]3C[C@H](C)C4=CC(=O)C=C[C@]4(C)[C@@]3(F)[C@@H](O)C[C@@]21C | 12.9 nM (active)
* CC1COC(Nc2ccc3ncnc(Nc4ccc(OCc5nccs5)c(Cl)c4)c3c2)=N1 (stereo not drawn) | 12900 nM (active)

In plain terms, COC(=O)C1(C)c2[nH]c3ccccc3c2CCN1C(=O)CCl (stereo not drawn) has a documented Potency of 2580 nM (active)

Entry CC1(C)CCCC2(C)C(C(=O)O)=CCC12 (stereo not drawn) ; Potency = inactive

Looking up CC[C@@H](N)CNc1ccnc(-c2cc(-c3cnn(C)c3)ccc2O)n1 , I see its Potency listed as 1030 nM (active)

Consider O=C(O)CC1CCC(c2ccc(-c3ccc4nc(C(=O)NCc5ccc(OC(F)(F)F)cc5)cn4c3)cc2)CC1 (stereo not drawn) . Its measured Potency is inactive

The recorded Potency for entry NCc1c[nH]c(=S)n1[C@@H]1CCc2c(F)cc(F)cc2C1 equals inactive

Reported Potency of CC(C)(C)c1cc(Br)cc([C@H](CC(=O)O)NC(=O)CNC(=O)c2cc(O)cc(NC3=NCC(O)CN3)c2)c1 (stereo partly drawn) : inactive

What the record says about CC(=O)OC1C[C@@]2(C)[C@@H](CC[C@@H](C)[C@]23Cc2c(O)cc4c(c2O3)CNC4=O)C(C)(C)[C@@H]1O (stereo partly drawn) : Potency is inactive

Entry under test: COc1cc(C(=O)OC[C@H]2O[C@@H](Oc3ccccc3/C=C/C(=O)O)[C@H](O)[C@@H](O)[C@@H]2O)cc(OC)c1OC . Its Potency was inactive

Kindly note the recorded Potency for CO[C@H]1/C=C/C=C/C=C/C[C@H](OC(=O)[C@@H](C)NC(=O)C2CCCCC2)[C@H](C)[C@@H](O)/C(C)=C/CCc2cc(O)cc(c2)NC(=O)C1 , which is 242 nM (active)

The compound listed as C=C(C(=O)O)[C@H]1C[C@]2(C)[C@@H](O)CC[C@]23O[C@H]1C[C@@H]3C has a reported Potency of inactive

---

Some compounds, each annotated with its measured activity change, negative = thiol reactive.
# protocol.summary: Primary fluorescence-based thiol-reactive (MSTI) qHTS assay for identification of artifact compounds. (AID 1845221);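 also: thiol-reactive compounds lower the probe fluorescence signal; nearly all actives have a fitted effect of over 65% in size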
# measurement.conditions: MSTI thiol-reactivity probe, 1 h; series mostly up to 53.8 µM
# Source text: PI: Alexander Tropsha Ph.D. UNC Eshelman School of Pharmacy University of North Carolina, Chapel Hill, North Carolina Hits from high-throughput screening (HTS) of chemical libraries are often false positives due to their interference with the assay detection technology. […] Using these curated datasets, we developed and validated several Quantitative Structure-Interference Relationship (QSIR) models to predict nuisance behavior. […]
Inconclusive results are not listed. Activity calls are given as the source filed them. Calls follow the shape of the dose curve; as a rule, active = well fitted inhibition curve with a large enough effect; inconclusive = small, poorly fitted or top-dose-only effect; inactive = no such curve, though single readings can be large or run the other way.

# count of solved cases: 3
- C[C@H](N)C(=O)N[C@@H](Cc1ccc(O)cc1)C(=O)N1CCC[C@H]1C(=O)NCC(=O)N[C@@H](CCCCN)C(=O)N[C@@H](Cc1ccccc1)C(N)=O: -3.19% [at 11.5 µM] (inactive)
- CC(=O)N[C@H]1[C@H](O[C@H]2CC[C@@]3(C)C(CC[C@]4(C)C3CC=C3[C@@H]5CC(C)(C)CC[C@]5(C(=O)OC5OCC(O)C(O)C5O)CC[C@]34C)C2(C)C)O[C@H](COC2OC(C)C(O)C(OC3OC(C)C(O)C(O)C3O)C2O)[C@@H](O)[C@@H]1O (some centres undefined): 127% [at 11.5 µM] (inactive)
- CC(=O)O[C@H]1[C@H](O[C@H]2[C@@H]3C=CO[C@@H](O[C@@H]4O[C@H](CO)[C@@H](O)[C@H](O)[C@H]4O)[C@@H]3[C@@]3(CO)O[C@@H]23)O[C@@H](C)[C@H](OC(=O)/C=C/c2ccccc2)[C@H]1OC(=O)/C=C/c1ccccc1: 2.44% [at 11.5 µM] (inactive)

In the following, a different compound is considered.
C[C@@H]1O[C@@H](O[C@H]2[C@H](O)[C@@H](C(=O)O)O[C@@H](O[C@H]3CC[C@@]4(C)C(CC[C@]5(C)C4CC=C4C6CC(C)(C)CC[C@]6(C(=O)O)CC[C@]45C)C3(C)C)[C@@H]2O[C@@H]2OC[C@@H](O)[C@H](O)[C@H]2O)[C@H](O)[C@H](O)[C@H]1O (some centres undefined) yielded activity change, negative = thiol reactive of 129% [at 11.5 µM] (inactive)

---

# Tested on: HaCat
# protocol.summary: Cytotoxic Profiling of Annotated Libraries Using Quantitative High-Throughput Screening (AID 1296008); also: nearly all actives have a fitted effect of over 60% in size; also: potency is read from the fitted curve at half-maximal effect
# measurement.conditions: Five cell lines viability, CellTiter-Glo ATP luminescence, 48-72 h
Records with an inconclusive call do not appear. Active and inactive are the calls of the source. Calls come from the whole dose curve; as a rule, active = well fitted inhibition curve with a large enough effect; inconclusive = small, poorly fitted or top-dose-only effect; inactive = flat fitted curve, though single readings scatter.
quantity.name: Potency

* Cc1ccc(N)cc1O | inactive
* CCOc1cc2ncc(C#N)c(Nc3ccc(F)c(Cl)c3)c2cc1NC(=O)/C=C/CN(C)C | 0.0259 µM (active)
* COc1c/c(=C2\C=c3ccccc3=N2)[nH]/c1=C\c1[nH]c(C)cc1C | 4.11 µM (active)
* CCCCNc1ncc2c(-c3ccc(F)cc3)nn(CC3CCC(N)CC3)c2n1 (stereo not drawn) | 10 µM (active)
* C[C@@H]1O[C@@H](O[C@@H]2[C@@H](O)[C@@H](O[C@]3(CO)O[C@H](CO)[C@@H](O)[C@@H]3OC(=O)/C=C/c3ccc(O)cc3)O[C@H](CO)[C@H]2OC(=O)/C=C/c2ccc(O)cc2)[C@H](O)[C@H](O)[C@H]1O[C@@H]1O[C@@H](C)[C@H](O[C@@H]2OC[C@](O)(CO)[C@H]2O)[C@@H](O)[C@H]1O | inactive
* COc1cc2ncnc(Nc3ccc(F)c(Cl)c3)c2cc1NC(=O)/C=C/CN1CCCCC1 | 0.0411 µM (active)
* O=C(Nc1nc2ccccc2n1CCc1ccccc1)c1ccccc1 | inactive

Now, please, on to the next compound.
Record COC(C(=O)N1Cc2[nH]nc(NC(=O)c3ccc(N4CCN(C)CC4)cc3)c2C1)c1ccccc1 (stereo not drawn) , field Potency: 5.8 µM (active)

Numbers sourced from PubChem BioAssay (NCATS).
